The measurements presented in this section are drawn from PubChem BioAssay AID623868.

- experiment.notes: thallium influx changes without GIRK channels – cell-based, HEK-293 rmGlu8, no GIRK, thallium flux, counter-screen for GIRK activator project, confirmation (AID 623868);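 further: extra codes mark interference with 3 for fluorescent and 4 for baseline rise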
- condition.context: thallium flux fluorescence, at 10 µM, actives lie on both sides, codes: 1 enhancer, -1 blocker, 0 none, thallium stimulus containing EC20 glutamate
Hit rate of the full screen: of about 2,100 compounds, about 760 (36%) were called active. Only a sample is shown.
Reported values of manual score for individual entries
measured.parameter: manual score

INSERT INTO results (smiles_input, quantitative_readout) VALUES
  ('Cc1ccccc1/C=c1\s/c(=C\C(=O)C(C)(C)C)[nH]c1=O', 0.5),
  ('O=C(NC(Nc1nc2ccc([N+](=O)[O-])cc2s1)(C(F)(F)F)C(F)(F)F)c1ccccc1Cl', 1),
  ('O=C1/C(=C\c2ccccn2)SC(=S)N1Nc1ncc(C(F)(F)F)cc1Cl', 0),
  ('FC(F)(F)c1cnc(NNC(=S)Nc2ccccc2Cl)c(Cl)c1', 1),
  ('CCCCCCCCc1nc(=S)[nH][nH]1', 1),
  ('CCCCCC(=O)NC(=S)NNC(=O)c1ccc([N+](=O)[O-])cc1', 1),
  ('FC(F)(F)c1cnc(NNC(=S)Nc2ccc(Cl)cc2)c(Cl)c1', 1),
  ('CC(C)CNC(=S)NC(=O)c1ccc(F)cc1', 1),
  ('Cc1ccc(NC(=S)Nc2ccc(Cl)c(Cl)c2)c(OC(F)F)c1', 0),
  ('C=CCN(CC=C)C(=S)NC(=O)c1ccc([N+](=O)[O-])cc1', 1),
  ('CCCCNC(=S)NC(=O)c1ccc([N+](=O)[O-])cc1', 1);
